Tested on: TRPC4 (mouse), co-expressed with 5HT1a in HEK293
Assay: enhancement of serotonin-evoked TRPC4 response – cell-based, second counter screen, HEK293 TRPC4/5HT1a, Fluo-4, counter-screen for TRPC4 potentiator project, confirmation (AID 434979)
Conditions: Fluo-4 calcium flux, at 10 µM, serotonin added at its EC20 dose
Activity calls are given as the source filed them.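 The calls were made as follows: active = signal rise over 3 SD above mean of control wells given weak agonist, in both repeats and first screen; inactive = the rest.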
The reply should be one of these categories: true (active), false (inactive)

compound | discrete_label
COc1ccc(-c2n[nH]c(C)c2-c2ccccc2OC)c(O)c1 | false
CC1=NN(c2ccccc2)C(=O)/C1=C/c1c(O)n(-c2ccc(F)c(Cl)c2)[nH]c1=O | false
COCCNC(=O)/C(C#N)=C/c1cc(C(C)C)c(OC)cc1C | true
CC1(C)CC2CC(C)(CN2C(=O)c2cc(-c3ccc(O)cc3)on2)C1 (configuration not stated) | false
Clc1cccc2c3c([nH]c12)CCNC3 | true
CC(=O)Nc1cccc(C(=O)NCC2(N3CCCCC3)CCCCC2)c1 | false

Input line: Fill in: this test's call for `O=C(NCCN1CCOCC1)c1cc2sccc2n1Cc1ccc(F)cc1` is ___
Output line: false

Input line: So what was the verdict on `COc1ccc(Cl)cc1C(=O)NCCN(C)C` in this test?
Output line: true
